# Test system: MS2 coat protein
# Assay explanation: apparent KD of MS2 coat protein, switch OFF state (with FMN for OFF switches, without FMN for ON switches); designed switch direction (-1 OFF switch, 1 ON switch): -1; higher = weaker reporter binding
# Run conditions: FMN input: 0 or 200 uM; Eterna round: R93 (includes R88 designs)
Please respond with reported apparent KD of MS2 coat protein for every item in the list.

Some sequences with known apparent KD of MS2 coat protein results, for comparison:
Give apparent KD of MS2 coat protein for the following sequence: GGUUGGCGAGGAUAUACAUGAGGAUCACCCAUGUGAGAGAAGAAAGUGAGGAGGAGAAGUAGAAGGCGCUGACG [salish99-ex3-20]
98.9 nM

Give apparent KD of MS2 coat protein for the following sequence: AACAAACAUGAGGAUCACCCAUGUCAGGAUAUGCAAACAACAAACAACAAACAACAAAGCAGAAGGGAUAGGAA [63%, Olong, 4]
21.2 nM

Give apparent KD of MS2 coat protein for the following sequence: AAAAAGUGAGGAUAUGUCAAAGGUCACGAAAGUGACAAAGGACAGAAGGCACAUGAGGAUCACCCAUGUGAAAA [Fiskers Exclusion 4D1 65% - Early + late G segment 2]
32.3 nM

Answer for every listed entry: what is its apparent KD of MS2 coat protein? The entries follow.
1. ACGUACUGAGGAUAUACGAACAUGUCAAAAGACGUGAAGGGACAUGAGGAUCACCCAUGUAGAAGGCAGUACGA [Mat - Exclusion 2 - JL mod - D7]
2. UUUUGACAUGAGGAUCACCCAUGUCAGGAUAUAGUAAGAAAAAAAAAAAAAAAAACUACUAGAAGGGAUAUGGA [Amethyst 51]
3. AAAAAGGGAGGAUAUACAUGAGGAUCACCCAUGUAACAGACGAAAAAGAGUCUGAAAUGUAGAAGGCCCAAAAA [65%, Moding Exclusion3-cac2, 5]
4. AAGAAACAUGAGGAUCACCCAUGUGAGGAUAUCUAAAAGAAAAGAAAAGAAAGAAGAAGGAGAAGGCACAAAGG [H—]
5. AAGAACUGAGGAUAUACAUGAGGAUCACCCAUGUAAAAGAAAGAGGGAAAAGAGAAAAGUAGAAGGCAGAAGAA [Berenice II]
6. AGCUAGUCAGGAUAUACGAACAUGUCAAAAGACGUGAAAGAACAUGAGGAUCACCCAUGUAGAAGGGACUAGCA [Mat - Exclusion 2 - JL-Eli mod - D48]

1. 172 nM
2. 25.4 nM
3. 48.4 nM
4. 29 nM
5. 32.4 nM
6. 18 nM

Where do the numbers come from? From the supplement of paper PMC9170038.
